Assay: label from the status in PepcDB records
quantityMeasured: protein production

MQDASAWMLALAGLCVGVTAGFFVRLARLCSFGAVEDALMGGDTRRLRIFGLALGIALLGTQALVIAGQLDPGQSNYTAPALPLISIAIGSVLFGIGMAFVGTCGFGSLVRLGGGDLRSFVVILVLGGAAYATLRGMFSGFRITVLERFAITMPEGVNTDLAALTQHLSGIDLRAVIAALGGGLLCLIALGDKRLRRTPRLLAAGVALGLLTVVGWLATTKLADPFAGPVHPQSLTFVSTVGKAVYAGLLNVANFADFGVGTVFGVIAGAFIAAWHTDELRWEAFDDDHEMRRHVAGAALMGFGGILTGGCTIGQGITAGSVMALSWPIAIVGMMFGARIGIAVLVDGSPRELIRRRFDAWRELLQRRRAPALTAANRPNHRPAAPSDAPRPTAPHSLAE: failed
MKINMHILGLLVVVGLFSLQSCDDESYDIEGSNQNYVYINVNRWTSTEYPQNTFVYEVLRTPIGSSLESGPEIVKVGVRSTKVASKDITVTLDIDNCASIGEFSSFPDGVKVTLDKKELVIPAGSMLSSDSVTIEIEDGKWSEFVNTSYLLPLKVTSVSNAALSETHSSAYLAVSTSFTNCVPGATSVEGTLISDRSAWTATNNGVDVGTTLFDGNTRTYPSQDASSTVIVNLNGVYQNITGIRLQYYSRNYSLSSAAVYTSETGGEDYEYQGNVTFSRATPQYIRFYGAVSARYVKLELLPYSSGYGIVLSEFDMYQNE: failed
